The entries below come with measured Kd values attached.
tgt: T1, EGFRvIII extracellular domain (EGFR (1-29)-G-(298-645)-LESRGPF-Myc-NMHTG-6His) (human, UniProt P00533 298-641)
T1 construct: also called recombinant EGFRvIII; not shown: Myc tag
test-details: SPR (Biacore), antibody captured via anti-human Fc, antigen injected
Note: unit nM is implicit; provide only the numeric part.

Antibody M (AbM) (antibody, V domains shown, Full length IgG1) VH: EVQLQESGPGLVKPSQTLSLTCTVSGYSIGRDFAWNWIRQPPGKGLEWMGYISYNGNTRYQPSLKSRITISRDTSKNQFFLKLNSVTAADTATYYCVTASRGFPYWGQGTLVTVSS VL: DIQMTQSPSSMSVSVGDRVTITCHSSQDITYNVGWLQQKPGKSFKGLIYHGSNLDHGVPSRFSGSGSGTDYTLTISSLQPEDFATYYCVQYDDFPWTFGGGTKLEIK	0.63
Antibody N (AbN) (antibody, V domains shown, Full length IgG1) VH: EVQLQESGPGLVKPSQTLSLTCTVSGYSIGRDFAWNWIRQPPGKGLEWMGYISYSGNTRYQPSLKSRITISRDTSKNQFFLKLNSVTAADTATYYCVTASRGFPYWGQGTLVTVSS VL: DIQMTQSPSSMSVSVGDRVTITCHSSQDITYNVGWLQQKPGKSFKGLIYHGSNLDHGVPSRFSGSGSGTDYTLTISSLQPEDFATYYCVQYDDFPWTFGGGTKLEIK	0.75

Here is another binder to look at.
Query string: Request the reported Kd associated with Antibody P (AbP) (antibody, V domains shown, Full length IgG1) VH: EVQLQESGPGLVKPSQTLSLTCTVSGYSISHDFAWNWIRQPPGKGLEWMGYISYSGNTRYQPSLKSRITISRDTSKNQFFLKLNSVTAADTATYYCVTASWGLPWWGQGTLVTVSS VL: DIQMTQSPSSMSVSVGDRVTITCHSSQDINMNVGWLQQKPGKSFKGLIYHGAILDDGVPSRFSGSGSGTDYTLTISSLQPEDFATYYCVQYAEFPWTFGGGTKLEIK
Result string: 1.2
